Data origin: ChEMBL document CHEMBL5126517

- systemName: Serine/threonine-protein kinase pim-1 (Homo sapiens, UniProt P11309)
- Sequence (P11309 whole entry): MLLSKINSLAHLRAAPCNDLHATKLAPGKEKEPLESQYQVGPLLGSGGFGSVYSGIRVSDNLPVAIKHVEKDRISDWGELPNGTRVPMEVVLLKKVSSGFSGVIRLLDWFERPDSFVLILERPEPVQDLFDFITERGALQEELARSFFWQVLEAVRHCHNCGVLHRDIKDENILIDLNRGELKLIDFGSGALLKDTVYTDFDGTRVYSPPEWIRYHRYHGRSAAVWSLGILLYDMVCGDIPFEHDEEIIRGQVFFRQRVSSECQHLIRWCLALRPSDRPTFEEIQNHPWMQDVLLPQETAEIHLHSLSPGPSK
- experiment: Inhibition of human recombinant Pim1 expressed in Escherichia coli using histone H1 as substrate incubated for 30 mins in presence of ATP by scintillation counting method
measuredEndpoint: IC50 (nM)

1. CCNC1=N/C(=C\c2ccc3c(c2)OCO3)C(=O)N1: 1200
2. O=C1NC(Nc2ccccc2)=N/C1=C\c1ccc(O)c(O)c1: 840
3. O=C1NC(Nc2ccccn2)=N/C1=C\c1ccc2c(c1)OCO2: 480
4. O=C1NC(N2CCCCC2)=N/C1=C\c1ccc2c(c1)OCO2: 880
5. CCCNC1=N/C(=C\c2ccc3c(c2)OCO3)C(=O)N1: 1200
6. O=C1NC(Nc2ccc(N3CCNCC3)cc2)=N/C1=C\c1ccc2c(c1)OC=CO2: 5400
7. CCCNC1=N/C(=C\c2ccc3c(c2)OCO3)C(=O)N1C: 3200
8. O=C1NC(Nc2ccc(N3CCNCC3)cc2)=N/C1=C\c1ccc2c(c1)OCO2: 6100

###

Entries annotated with measured Activity
- systemName: Cannabinoid receptor 1 (Homo sapiens)
- Sequence (P21554 whole entry): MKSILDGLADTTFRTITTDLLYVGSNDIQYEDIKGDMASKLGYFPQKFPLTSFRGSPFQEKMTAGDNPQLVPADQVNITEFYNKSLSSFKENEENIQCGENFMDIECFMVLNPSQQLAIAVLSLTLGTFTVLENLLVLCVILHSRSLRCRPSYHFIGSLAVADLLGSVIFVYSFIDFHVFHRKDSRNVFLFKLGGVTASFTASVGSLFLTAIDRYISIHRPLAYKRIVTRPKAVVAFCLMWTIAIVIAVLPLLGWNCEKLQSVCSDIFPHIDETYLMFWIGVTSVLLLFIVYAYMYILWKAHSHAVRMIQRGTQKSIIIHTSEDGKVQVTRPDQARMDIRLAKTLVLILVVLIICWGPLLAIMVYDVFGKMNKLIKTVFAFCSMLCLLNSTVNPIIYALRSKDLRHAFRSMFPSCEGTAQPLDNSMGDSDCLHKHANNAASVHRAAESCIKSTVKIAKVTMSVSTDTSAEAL
- experiment: Antagonist activity at CP-55940-activated CB1 receptor (unknown origin) at 10 uM by beta-arrestin assay relative to control
- Assay type: functional
- Design: scale not given: the % may be the effect or the level left
measuredEndpoint: Activity (%)

1) COc1cc(/C=C2\N=C(Nc3ccc(N4CCNCC4)cc3)NC2=O)ccc1O: -26.8
2) O=C1NC(N2CCC(N3CCCCC3)CC2)=N/C1=C\c1ccc2c(c1)OCO2: -51.1
3) CN1C(=O)/C(=C/c2ccc3c(c2)OCO3)N=C1N: 9.5
4) O=C1OC(Nc2ccccc2)=N/C1=C\c1ccc2c(c1)OCO2: -37.5
5) CN1C(=O)/C(=C/c2ccc3c(c2)OCO3)N=C1Nc1ccccc1: -5.5
6) O=C1NC(N2CCOCC2)=N/C1=C\c1ccc2c(c1)OCO2: -51
7) CCCNC1=N/C(=C\c2ccc3c(c2)OCO3)C(=O)N1c1ccccc1: -17.9
8) CN1CCN(c2ccc(NC3=N/C(=C\C4=COc5ccccc5O4)C(=O)N3)cc2)CC1: -1.4
9) CN(C1=N/C(=C\c2ccc3c(c2)OCO3)C(=O)N1)c1ccccc1: -9.1
10) O=C1NC(N2CCCCC2)=N/C1=C\c1ccc2c(c1)OCO2: -58.4
11) CCCCCOc1ccc(NC2=N/C(=C\c3ccc4c(c3)OCO4)C(=O)N2)cc1: 37.4
12) CCCNC1=N/C(=C\c2ccc3c(c2)OCO3)C(=O)N1: -14.8
13) NC1=N/C(=C\c2ccc3c(c2)OCO3)C(=O)N1: -2.2
14) O=C1NC(Nc2ccc(N3CCNCC3)cc2)=N/C1=C\c1ccc2c(c1)OC=CO2: -20
15) CCCNC1=N/C(=C\c2ccc3c(c2)OCO3)C(=O)N1CCC: -13.4
16) O=C1NC(NC2CCNCC2)=N/C1=C\c1ccc2c(c1)OCO2: -43.5
17) CCCSC1=N/C(=C\c2ccc3c(c2)OCO3)C(=O)N1C: 37.2
18) COc1cc(/C=C2\N=C(Nc3ccc(N4CCN(C)CC4)cc3)NC2=O)ccc1O: 14.3
19) O=C1NC(Nc2ccc(-c3ccccc3)cc2)=N/C1=C\c1ccc2c(c1)OCO2: 36.8
20) O=C1NC(Nc2ccc(O)c(F)c2)=N/C1=C\c1ccc2c(c1)OCO2: -5.6
21) Cn1cc(Cc2ccc3c(c2)OCO3)nc1N: 8.9
22) O=C1NC(Nc2ccccc2)=N/C1=C\c1ccc(O)c(O)c1: -22.3
23) CCCSC1=N/C(=C\c2ccc3c(c2)OCO3)C(=O)N1: -2.6

###

- systemName: Dual specificity protein kinase CLK1 (Mus musculus)
- Sequence (P22518 whole entry, the tested form may be a part): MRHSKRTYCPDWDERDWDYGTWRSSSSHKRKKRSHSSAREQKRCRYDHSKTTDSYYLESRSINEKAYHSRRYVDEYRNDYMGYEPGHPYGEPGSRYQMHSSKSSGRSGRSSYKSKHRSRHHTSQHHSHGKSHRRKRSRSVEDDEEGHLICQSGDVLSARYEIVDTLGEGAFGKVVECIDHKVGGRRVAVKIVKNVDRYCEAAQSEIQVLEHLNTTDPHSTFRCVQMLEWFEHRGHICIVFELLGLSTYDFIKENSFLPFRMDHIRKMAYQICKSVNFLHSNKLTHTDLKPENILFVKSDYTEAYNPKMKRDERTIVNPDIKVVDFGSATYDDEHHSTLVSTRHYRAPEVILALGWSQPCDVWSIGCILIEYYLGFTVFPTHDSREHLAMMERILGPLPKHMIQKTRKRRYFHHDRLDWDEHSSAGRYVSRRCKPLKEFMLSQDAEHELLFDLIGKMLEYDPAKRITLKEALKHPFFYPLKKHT
- experiment: Inhibition of GST-fused mouse recombinant CLK1 expressed in Escherichia coli using GRSRSRSRSRSR peptide as substrate incubated for 30 mins in presence of ATP by scintillation counting method
pIC50: −log10 of the molar value.
measuredEndpoint: pIC50

1. O=C1NC(N2CCC(N3CCCCC3)CC2)=N/C1=C\c1ccc2c(c1)OCO2: 6.04
2. O=C1NC(Nc2ccc(N3CCNCC3)cc2)=N/C1=C\c1ccc2c(c1)OC=CO2: 5.96
3. CCCCCOc1ccc(NC2=N/C(=C\c3ccc4c(c3)OCO4)C(=O)N2)cc1: 6.07
4. CCSC1=N/C(=C\c2ccc3c(c2)OCO3)C(=O)N1: 7.54
5. CCNC1=N/C(=C\c2ccc3c(c2)OCO3)C(=O)N1: 7.19
6. CNC1=N/C(=C\c2ccc3c(c2)OCO3)C(=O)N1: 6.85
7. O=C1NC(Nc2ccccc2)=NC1Cc1ccc2c(c1)OCO2 (centres undefined): 5.20
8. O=C1NC(N2CCCC2)=N/C1=C\c1ccc2c(c1)OCO2: 6.22
9. O=C1NC(Nc2ccccc2)=N/C1=C\c1ccc2c(c1)OCCO2: 6.89
10. CCCNC1=N/C(=C\c2ccc3c(c2)OCO3)C(=O)N1C: 6.96
11. O=C1NC(Nc2ccccc2)=N/C1=C\c1ccc(F)cc1: 5.49
12. O=C1NC(Nc2ccc(F)cc2)=N/C1=C\c1ccc2c(c1)OCO2: 7.21
13. O=C1NC(Nc2ccc(O)c(F)c2)=N/C1=C\c1ccc2c(c1)OCO2: 7.80
14. Cc1ccc(NC2=N/C(=C\c3ccc4c(c3)OCO4)C(=O)N2)cc1C: 6.55

###

- systemName: Dual specificity tyrosine-phosphorylation-regulated kinase 1A (Homo sapiens, UniProt Q13627)
- experiment: Inhibition of GST-fused human recombinant DYRK1A expressed in Escherichia coli using GRSRSRSRSRSR peptide as substrate incubated for 30 mins in presence of ATP by scintillation counting method
pIC50: −log10 of the molar value.
measuredEndpoint: pIC50

1) CCCNC1=N/C(=C\c2ccc3c(c2)OCO3)C(=O)N1: 6.92
2) C/C(=C1/N=C(Nc2ccccc2)NC1=O)c1ccc2c(c1)OCO2: 5.07
3) O=C1NC(Nc2ccccc2)=N/C1=C\c1ccc(O)c(O)c1: 6.82
4) O=C1NC(Nc2ccccc2)=NC1Cc1ccc2c(c1)OCO2 (stereo unspecified): 5.29
5) CCCNC1=N/C(=C\c2ccc3c(c2)OCO3)C(=O)N1C: 6.34
6) O=C1NC(Nc2ccc(O)cc2)=N/C1=C\c1ccc2c(c1)OCO2: 7.89
7) CNC1=N/C(=C\c2ccc3c(c2)OCO3)C(=O)N1: 6.80
8) CCNC1=N/C(=C\c2ccc3c(c2)OCO3)C(=O)N1: 6.85
9) Cc1ccc(NC2=N/C(=C\c3ccc4c(c3)OCO4)C(=O)N2)cc1C: 6.89

###

- systemName: Dual specificity tyrosine-phosphorylation-regulated kinase 3 (Homo sapiens)
- Sequence (O43781 whole entry): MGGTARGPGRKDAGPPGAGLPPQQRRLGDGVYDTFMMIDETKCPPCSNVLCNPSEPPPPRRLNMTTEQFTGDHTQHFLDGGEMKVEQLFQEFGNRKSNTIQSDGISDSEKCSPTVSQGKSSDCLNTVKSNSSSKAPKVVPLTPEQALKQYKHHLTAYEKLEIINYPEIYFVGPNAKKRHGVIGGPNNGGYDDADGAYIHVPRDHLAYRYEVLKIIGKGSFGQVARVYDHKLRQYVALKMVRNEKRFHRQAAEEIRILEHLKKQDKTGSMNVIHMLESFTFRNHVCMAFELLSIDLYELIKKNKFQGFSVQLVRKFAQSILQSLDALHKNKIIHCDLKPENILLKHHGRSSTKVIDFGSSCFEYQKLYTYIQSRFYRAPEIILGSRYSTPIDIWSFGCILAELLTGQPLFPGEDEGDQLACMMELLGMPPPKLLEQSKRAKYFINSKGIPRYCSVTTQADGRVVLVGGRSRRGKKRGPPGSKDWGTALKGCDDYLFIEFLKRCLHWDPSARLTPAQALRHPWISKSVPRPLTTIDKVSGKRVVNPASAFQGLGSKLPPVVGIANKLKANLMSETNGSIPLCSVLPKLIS
- experiment: Inhibition of GST-fused human recombinant DYRK3 expressed in Escherichia coli using GRSRSRSRSRSR peptide as substrate incubated for 30 mins in presence of ATP by scintillation counting method
measuredEndpoint: IC50 (µM)

1) O=C1NC(Nc2ccc(O)cc2)=N/C1=C\c1ccc2c(c1)OCO2: 0.14
2) O=C1NC(N2CCOCC2)=N/C1=C\c1ccc2c(c1)OCO2: 1.9
3) COc1cc(/C=C2\N=C(Nc3ccccc3)NC2=O)ccc1O: 0.12
4) Cc1ccc(C)c(NC2=N/C(=C\c3ccc4c(c3)OCO4)C(=O)N2)c1: 0.8
5) CN1C(=O)/C(=C/c2ccc3c(c2)OCO3)N=C1Nc1ccccc1: 0.87
6) CN(C1=N/C(=C\c2ccc3c(c2)OCO3)C(=O)N1)c1ccccc1: 1.8
7) CSC1=N/C(=C\c2ccc3c(c2)OCO3)C(=O)N1: 0.41
8) NC1=N/C(=C\c2ccc3c(c2)OCO3)C(=O)N1: 0.24
